B1: TMEM106C (parent)
chain: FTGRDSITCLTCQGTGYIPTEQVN

variants of: B1; experiment: protein stability index of a GFP-peptide fusion (GPS, HEK-293T) (PSI 1-6); higher = more stable; details: c terminus: a fixed tail appended;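 note: lentivirally expressed fusions sorted by FACS into six bins by GFP to DsRed ratio, PSI derived from sequencing read proportions per bin multiplied by bin number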
I'd be grateful if you could share measured protein stability index for these entries.
One number for each entry.

{"columns": ["mutation_name", "readout_kind", "endpoint_value"],
 "data": [
  ["F1D", "protein stability index", 4.88]
]}

Hi! Can you tell me protein stability index for each of these variants?
1. I18N
2. F1W
3. T15M
4. G16A
5. S6E
6. T2P

**Result**
1: 1.61; 2: 4.06; 3: 2.59; 4: 1.92; 5: 2.73; 6: 2.82
